These data points were gathered from patent US20230272086A1.

Item-by-item account of pEC50
Molecular target: T1, recombinant protein containing hST2 extracellular domain with mouse antibody heavy chain Fc tag (hST2-ECD-mFc) (human)
T1 construct: Used for SPR and for ELISA of chimeric and humanized antibodies; also called human ST2 antigen
T1 chain: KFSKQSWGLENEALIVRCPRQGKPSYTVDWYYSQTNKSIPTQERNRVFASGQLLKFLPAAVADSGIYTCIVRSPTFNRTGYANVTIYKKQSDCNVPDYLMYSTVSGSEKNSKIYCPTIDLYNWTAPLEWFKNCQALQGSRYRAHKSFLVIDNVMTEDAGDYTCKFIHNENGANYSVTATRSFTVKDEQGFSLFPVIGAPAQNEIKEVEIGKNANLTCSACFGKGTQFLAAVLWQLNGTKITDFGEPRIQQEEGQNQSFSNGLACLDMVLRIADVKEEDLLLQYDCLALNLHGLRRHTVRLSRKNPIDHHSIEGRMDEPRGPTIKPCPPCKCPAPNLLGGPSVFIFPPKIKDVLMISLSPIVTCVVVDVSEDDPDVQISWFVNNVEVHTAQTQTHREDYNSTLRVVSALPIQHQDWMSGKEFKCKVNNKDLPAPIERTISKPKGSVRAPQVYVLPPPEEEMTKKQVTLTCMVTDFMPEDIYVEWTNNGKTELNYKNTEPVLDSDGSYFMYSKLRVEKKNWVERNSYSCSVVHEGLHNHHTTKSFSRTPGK
Experiment: ELISA, plate coated with hST2-ECD-mFc, antibody not heated
Method: The anti-ST2 antibodies were diluted with PBS buffer to a concentration of 1.5 mg/mL. […], the samples were assayed by ELISA for their binding activity for an antigen The ELISA procedure is as follows: A 96-well plate was coated with 2 µg/mL hST2-ECD-mFc as the antigen at 100 µL/well and incubated at 4° C. overnight. […] The signals were read at 450 nm using a plate reader (PE, Envision). The data were analyzed using GraphPad Prism5, and the EC₅₀ values were calculated.
pEC50: −log10 of the molar value.
assay_endpoint: pEC50

1. Humanized 31C8-1.1 (antibody, human IgG2, kappa, V domains shown, also called hz31C8-1.1; hz31C81-1.1) VH: EVQLVQSGAEVKKPGATVKISCKASGYIFIDSEMHWVQQAPGKGLEWMGAIDPETGDTVYAEKFQGRVTITADKSSSTAYMELSSLRSEDTAVYYCTGSTTDYYFAYWGQGTLVTVSS VL: DIQMTQSPSSLSASVGDRVTITCRSSKSLLHSNGIIYLYWYQQKPGKAPKLLIYQLSNLASGVPSRFSSSGSGTDFTLTISSLQPEDFATYYCAQNLELPFTFGQGTKVEIKR : 10.04
2. Humanized 31C8-1.2 (antibody, human IgG2, kappa, V domains shown, also called hz31C8-1.2; hz31C81-1.2) VH: QVQLVQSGAKVKKPGATVKISCKASGYIFIDSEMHWVQQAPGKGLEWMGAIDPETGDTVYAKKFKGRVTITADKSSSTAYMELSSLRSEDTAVYYCTGSTTDYYFAYWGQGTLVTVSS VL: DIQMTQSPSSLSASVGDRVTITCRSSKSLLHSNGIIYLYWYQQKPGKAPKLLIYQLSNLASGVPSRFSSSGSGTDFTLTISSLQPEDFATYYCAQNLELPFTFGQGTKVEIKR : 10.04
3. GSK3772847 (antibody STLM208 in CN104411333, prepared in-house) (antibody, human IgG2, kappa, V domains shown, Control anti-ST2 antibody) VH: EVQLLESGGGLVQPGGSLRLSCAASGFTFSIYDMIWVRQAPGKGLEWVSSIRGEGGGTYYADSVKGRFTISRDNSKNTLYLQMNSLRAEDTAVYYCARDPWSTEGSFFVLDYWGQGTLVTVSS VL: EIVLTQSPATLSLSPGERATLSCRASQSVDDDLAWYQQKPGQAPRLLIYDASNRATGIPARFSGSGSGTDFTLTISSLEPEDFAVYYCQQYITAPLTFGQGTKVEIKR : 9.96
